Tested on: T24 Bladder
Run description: Cytotoxic effect by MTT assay, 48 h
Measurement conditions: Homo sapiens, 48 h, read-out: IC50 Values
Measurement name: pIC50
The scale used: pIC50 is minus the common logarithm of the concentration in molar units.

Query: Looking for the measured pIC50 of COc1cccc2c1C(=O)c1c(O)c3c(c(O)c1C2=O)C[C@@](O)(C(=O)CO)C[C@@H]3O[C@H]1C[C@H](N)[C@H](O)[C@H](C)O1 [Doxorubicin] , can you help?
Reply: 5.26

###

Run description: Cytotoxic effect by MTT assay, 48 h
Measurement conditions: human
Measurement name: cytotoxicity at 48 h, 0.1 µM
Answers without a unit are incomplete; give the number and then its unit.

Query: Looking for the measured cytotoxicity at 48 h, 0.1 µM of COc1cccc2c1C(=O)c1c(O)c3c(c(O)c1C2=O)C[C@@](O)(C(=O)CO)C[C@@H]3O[C@H]1C[C@H](N)[C@H](O)[C@H](C)O1 [Doxorubicin] , can you help?
Reply: 3.3%
